targetOrTestSystem: T1, mouse MuSK (mouse, UniProt Q61006 22-494, limits assumed)
T1 construct: Coated on ELISA plates or on the Biacore chip; also called full length mouse MuSK; mouse MuSK (in house produced in HEK293 cells)
T1 sequence (looked up): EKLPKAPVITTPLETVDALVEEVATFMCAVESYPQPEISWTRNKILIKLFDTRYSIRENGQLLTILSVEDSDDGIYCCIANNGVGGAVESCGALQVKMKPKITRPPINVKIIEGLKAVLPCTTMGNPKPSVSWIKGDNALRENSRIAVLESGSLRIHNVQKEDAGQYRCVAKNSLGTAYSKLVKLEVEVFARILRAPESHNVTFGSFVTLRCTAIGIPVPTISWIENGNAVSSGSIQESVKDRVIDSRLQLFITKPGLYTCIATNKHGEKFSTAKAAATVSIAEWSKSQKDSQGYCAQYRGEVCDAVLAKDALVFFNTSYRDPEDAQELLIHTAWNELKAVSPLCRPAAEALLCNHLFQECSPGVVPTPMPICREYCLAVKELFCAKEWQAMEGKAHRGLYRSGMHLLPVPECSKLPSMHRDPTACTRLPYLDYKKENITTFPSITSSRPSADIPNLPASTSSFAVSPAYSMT
methodNotes: Biacore T200, off rate at pH 5.5 against pH 7.4
endpoint: Ratio pH 5.5/7.4 of off rate
API doc: respond with a numeric literal and nothing else, no unit.

q: Tell me its Ratio pH 5.5/7.4 of off rate given 3B2g2m1 Fab (Fab, V domains shown, Fab format) VH: EVQLLESGGGLVQPGGSLRLSCAASGFTFSDYGMSWVRQAPGKGLEWVSAIPWSGGSTYYKESVKGRFTISRDNSKNTLYLQMNSLRAEDTAVYYCAKRSGRIAFGALDAWGQGTLVTVSS VL: QTVVTQEPSFSVSPGGTVTLTCGLSSGSVTSSNYPDWYQQTPGQAPRTLIYSTDSRHSGVPDRFSGSILGNKAALTITGAQADDESDYYCGLYSYSGSKNYVFGGGTKLTVL as the entry.
a: 8.9

The reported numbers originate from patent US20230151091A1.
